system: CYPIR (Rice Flatsedge); assay: Postemergence weed control under flooded paddy conditions; format: in vivo, Cyperus iria; conditions: rate 0.0625 kg/ha, postemergence weeds, 3-4 weeks after treatment
Readout name: Herbicidal rating CYPIR

INSERT INTO assay_data (molecule, observed) VALUES
  ('CCOC(=O)CN1C(=O)CSC1=Nc1cc(-n2c(=O)cc(C(F)(F)F)n(C)c2=O)c(F)cc1Cl [Compound 8]', 0.0),
  ('CCOC(=O)CN1C(=O)C(Cc2ccccc2)SC1=Nc1cc(-n2c(=O)cc(C(F)(F)F)n(C)c2=O)c(F)cc1Cl (stereo not drawn) [Compound 24]', 0.0),
  ('CN1C(=O)CS/C1=N/c1cc(-n2c(=O)cc(C(F)(F)F)n(C)c2=O)c(F)cc1Cl [Compound 7]', 9.0),
  ('CCOC(=O)CN1C(=O)C(CC(=O)OC(C)C)SC1=Nc1cc(-n2c(=O)cc(C(F)(F)F)n(C)c2=O)c(F)cc1Cl (stereo not drawn) [Compound 55]', 9.0),
  ('COC(=O)CCCN1C(=O)CSC1=Nc1cc(-n2c(=O)cc(C(F)(F)F)n(C)c2=O)c(F)cc1Cl [Compound 29]', 0.0),
  ('CCOC(=O)CN1C(=O)C(CCO)S/C1=N/c1cc(-n2c(=O)cc(C(F)(F)F)n(C)c2=O)c(F)cc1Cl (stereo not drawn) [Compound 49]', 0.0);

* * *

tested on: MOOVA (Monochoria); test: Preemergence weed control under flooded paddy conditions; assay type: in vivo, Monochoria vaginalis; details: 0.0313 kg/ha, rated 3-4 weeks after treatment
Readout name: Herbicidal rating MOOVA

INSERT INTO measurements (compound, experimental_system, observed) VALUES
  ('CCOC(=O)CN1C(=O)C(CCO)S/C1=N/c1cc(-n2c(=O)cc(C(F)(F)F)n(C)c2=O)c(F)cc1Cl (stereo not shown) [Compound 49]', 'MOOVA (Monochoria)', 9.0),
  ('Cn1c(C(F)(F)F)cc(=O)n(-c2cc(N=C3SCC(=O)N3Cc3ccccc3)c(Cl)cc2F)c1=O [Compound 26]', 'MOOVA (Monochoria)', 9.0),
  ('COC(=O)CCCN1C(=O)CSC1=Nc1cc(-n2c(=O)cc(C(F)(F)F)n(C)c2=O)c(F)cc1Cl [Compound 29]', 'MOOVA (Monochoria)', 0.0),
  ('CCOC(=O)CN1C(=O)C2(CC2)SC1=Nc1cc(-n2c(=O)cc(C(F)(F)F)n(C)c2=O)c(F)cc1Cl [Compound 15]', 'MOOVA (Monochoria)', 9.0);

* * *

tested on: ECHCG (Barnyardgrass); assay: Preemergence herbicidal evaluation; format: in vivo, Echinochloa crus-galli; details: rate 0.0156 kg/ha; rated 4-5 weeks after treatment
Readout name: Preemergence herbicidal rating ECHCG

INSERT INTO assay_data (compound, readout_name, observed) VALUES
  ('CCOC(=O)CN1C(=O)C(CC(=O)Nc2ccccc2)SC1=Nc1cc(-n2c(=O)cc(C(F)(F)F)n(C)c2=O)c(F)cc1Cl (centres unmarked)', 'Preemergence herbicidal rating ECHCG', 0.0),
  ('CCOC(=O)CN1C(=O)C(CC(=O)OC)S/C1=N/c1cc(-n2c(=O)cc(C(F)(F)F)n(C)c2=O)c(F)cc1Cl (centres unmarked)', 'Preemergence herbicidal rating ECHCG', 0.0),
  ('C[C@@H](C(=O)OC(C)(C)C)N1C(=O)CSC1=Nc1cc(-n2c(=O)cc(C(F)(F)F)n(C)c2=O)c(F)cc1Cl', 'Preemergence herbicidal rating ECHCG', 0.0),
  ('C=CCOC(=O)CC1SC(=Nc2cc(-n3c(=O)cc(C(F)(F)F)n(C)c3=O)c(F)cc2Cl)N(CC=C)C1=O (centres unmarked)', 'Preemergence herbicidal rating ECHCG', 0.0),
  ('C#CCOC(=O)CN1C(=O)CSC1=Nc1cc(-n2c(=O)cc(C(F)(F)F)n(C)c2=O)c(F)cc1Cl', 'Preemergence herbicidal rating ECHCG', 0.0),
  ('Cn1c(C(F)(F)F)cc(=O)n(-c2cc(N=C3NC(=O)CS3)c(Cl)cc2F)c1=O', 'Preemergence herbicidal rating ECHCG', 0.0),
  ('CCOC(=O)[C@H](Cc1ccccc1)N1C(=O)CSC1=Nc1cc(-n2c(=O)cc(C(F)(F)F)n(C)c2=O)c(F)cc1Cl', 'Preemergence herbicidal rating ECHCG', 0.0),
  ('C=CCN1C(=O)C(CC(=O)OC)SC1=Nc1cc(-n2c(=O)cc(C(F)(F)F)n(C)c2=O)c(F)cc1Cl (centres unmarked)', 'Preemergence herbicidal rating ECHCG', 0.0);

* * *

system: CASOB (Sicklepod); assay: Postemergence herbicidal evaluation; assay type: in vivo, Cassia obtusifolia; conditions: postemergence, rate 0.0625 kg/ha
Reported values of Herbicidal rating CASOB for individual entries
Readout name: Herbicidal rating CASOB

INSERT INTO results (molecule, readout_name, observed) VALUES
  ('Cn1c(C(F)(F)F)cc(=O)n(-c2cc(N=C3SCC(=O)N3Cc3ccncc3)c(Cl)cc2F)c1=O', 'Herbicidal rating CASOB', 3.0),
  ('CCOC(=O)CN1C(=O)C(C(=O)OC(C)(C)C)SC1=Nc1cc(-n2c(=O)cc(C(F)(F)F)n(C)c2=O)c(F)cc1Cl (stereo not shown)', 'Herbicidal rating CASOB', 1.0),
  ('Cn1c(C(F)(F)F)cc(=O)n(-c2cc(N=C3SCC(=O)N3CC(=O)OCC3CCCCC3)c(Cl)cc2F)c1=O', 'Herbicidal rating CASOB', 9.0),
  ('C=CCN1C(=O)C(CC(=O)NS(=O)(=O)c2ccccc2)SC1=Nc1cc(-n2c(=O)cc(C(F)(F)F)n(C)c2=O)c(F)cc1Cl (stereo not shown)', 'Herbicidal rating CASOB', 2.0);

* * *

The following molecules are listed with their measured GALAP rating values.
Tested on: GALAP (Galium)
Assay: Preemergence herbicidal evaluation
Type: in vivo, Galium aparine
Details: preemergence, 0.5000 kg/ha, rated 4-5 weeks after treatment, 0-9 scale
Excerpt: Results of herbicide evaluation are expressed on a rating scale (0-9). The scale is based upon a visual observation of plant stand, vigor, malformation, size, chlorosis and overall plant appearance as compared with a control. […] The compounds evaluated are reported by compound number given in Example 37.
Readout name: GALAP rating

INSERT INTO results (molecule, observed) VALUES
  ('C=CCN1C(=O)C(CC(=O)NS(=O)(=O)CC)SC1=Nc1cc(-n2c(=O)cc(C(F)(F)F)n(C)c2=O)c(F)cc1Cl (centres unmarked)', 6.0),
  ('CCOC(=O)CN1C(=O)C(CC(=O)NO)S/C1=N/c1cc(-n2c(=O)cc(C(F)(F)F)n(C)c2=O)c(F)cc1Cl (centres unmarked)', 7.0),
  ('CCOC(=O)CN1C(=O)C(CC(=O)NOC)SC1=Nc1cc(-n2c(=O)cc(C(F)(F)F)n(C)c2=O)c(F)cc1Cl (centres unmarked)', 9.0),
  ('CC(C)OC(=O)CC1SC(=Nc2cc(-n3c(=O)cc(C(F)(F)F)n(C)c3=O)c(F)cc2Cl)N(C)C1=O (centres unmarked)', 9.0),
  ('C=CCN1C(=O)C(CC(=O)OCCF)SC1=Nc1cc(-n2c(=O)cc(C(F)(F)F)n(C)c2=O)c(F)cc1Cl (centres unmarked)', 9.0);

* * *

test system: CASOB (Sicklepod); assay: Postemergence herbicidal evaluation; format: in vivo, Cassia obtusifolia; settings: postemergence, rate 0.0315 kg/ha
Readout name: CASOB herbicidal rating

INSERT INTO assay_data (compound, observed) VALUES
  ('CN(C)N1C(=O)CSC1=Nc1cc(-n2c(=O)cc(C(F)(F)F)n(C)c2=O)c(F)cc1Cl', 1.0),
  ('CCOC(=O)CN1C(=O)C(=Cc2ccccc2)SC1=Nc1cc(-n2c(=O)cc(C(F)(F)F)n(C)c2=O)c(F)cc1Cl', 1.0),
  ('COC(=O)C(Cc1ccc(Cl)cc1)N1C(=O)CSC1=Nc1cc(-n2c(=O)cc(C(F)(F)F)n(C)c2=O)c(F)cc1Cl (racemic)', 1.0),
  ('CCOC(=O)CN1C(=O)CO/C1=N/c1cc(-n2c(=O)cc(C(F)(F)F)n(C)c2=O)c(F)cc1Cl', 2.0),
  ('CCOC(=O)CN1C(=O)C(Cc2ccccc2)SC1=Nc1cc(-n2c(=O)cc(C(F)(F)F)n(C)c2=O)c(F)cc1Cl (centres unmarked)', 0.0),
  ('CC(C)C[C@@H](C(=O)O)N1C(=O)CSC1=Nc1cc(-n2c(=O)cc(C(F)(F)F)n(C)c2=O)c(F)cc1Cl', 3.0),
  ('C=CCOC(=O)CC1SC(=Nc2cc(-n3c(=O)cc(C(F)(F)F)n(C)c3=O)c(F)cc2Cl)N(CC=C)C1=O (centres unmarked)', 2.0),
  ('C#CCOC(=O)CC1SC(=Nc2cc(-n3c(=O)cc(C(F)(F)F)n(C)c3=O)c(F)cc2Cl)N(CC=C)C1=O (centres unmarked)', 2.0);
